# Tested on: P388 leukemia
# Measurement Description: Antitumor activity against P388 leukemia intraperitoneally transplanted into CDF2 mice
# Format: in vivo
# Particulars: 2 mg/kg i.v., day 1 and day 5; control = 100
Task for the reader: assign each of the following molecules its reported T/C.
The reply should contain only the number, in %.

q: # T/C lookup, item CC[C@@]1(O)C[C@H](O[C@H]2C[C@H](N3CCO[C@@H](N=[N+]=[N-])C3)[C@H](O)[C@H](C)O2)c2c(O)c3c(c(O)c2[C@H]1O)C(=O)c1cccc(O)c1C3=O
a: 294

q: Need T/C of CC[C@@]1(O)C[C@H](O[C@H]2C[C@H](N3CCO[C@H](N=[N+]=[N-])C3)[C@H](O)[C@H](C)O2)c2c(O)c3c(c(O)c2[C@H]1O)C(=O)c1cccc(O)c1C3=O , thanks.
a: 231

q: Consider the molecule shown here: CC[C@@]1(O)C[C@H](O[C@H]2C[C@H](N3CCO[C@H](NC(C)=O)C3)[C@H](O)[C@H](C)O2)c2c(O)c3c(c(O)c2[C@H]1O)C(=O)c1cccc(O)c1C3=O What is its recorded T/C?
a: 124

q: Any idea what its T/C is? The molecule is CC[C@@]1(O)C[C@H](O[C@H]2C[C@H](N3CCO[C@H](NC(=O)C(F)(F)F)C3)[C@H](O)[C@H](C)O2)c2c(O)c3c(c(O)c2[C@H]1O)C(=O)c1cccc(O)c1C3=O
a: 136

q: Any idea what its T/C is? The molecule is CC[C@@]1(O)C[C@H](O[C@H]2C[C@H](N3CCO[C@@H](NC(=O)C(F)(F)F)C3)[C@H](O)[C@H](C)O2)c2c(O)c3c(c(O)c2[C@H]1O)C(=O)c1cccc(O)c1C3=O
a: 120

From: patent US4959460A
